Where do the numbers come from? From paper PMC10180488.

Target: human PPARγ- LBD (Homo sapiens, UniProt P37231)
Construct: a mixture of a human PPARγ- LBD labelled with glutathione S-transferase (GST)
Sequence (P37231 238-503 limits assumed): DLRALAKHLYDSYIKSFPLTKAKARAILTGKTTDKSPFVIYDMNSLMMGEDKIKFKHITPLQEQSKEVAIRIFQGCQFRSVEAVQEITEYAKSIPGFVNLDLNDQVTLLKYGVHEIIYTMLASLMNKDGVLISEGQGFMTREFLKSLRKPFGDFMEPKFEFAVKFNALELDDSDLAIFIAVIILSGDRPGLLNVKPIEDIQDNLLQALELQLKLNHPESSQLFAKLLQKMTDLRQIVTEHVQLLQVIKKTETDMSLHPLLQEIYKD
Test: Lanthascreen TR-FRET PPARγ competitive binding assay
Conditions: TR-FRET, 0.000256 µM
Listing: Raw Data - Background of selected molecules
Just the number please, in RLU, no unit attached.

C=CCc1ccc(OCC(=O)Nc2ccccc2)c(OC)c1 : 1.68
C=CCc1ccc(OCC(=O)Nc2ccc([N+](=O)[O-])cc2)c(OC)c1 : 1.755
C=CCc1ccc(OCC(=O)Nc2cccc(Cl)c2)c(OC)c1 : 1.610
C=CCc1ccc(OCC(=O)Nc2ccccc2C)c(OC)c1 : 1.646

Any idea what Raw Data - Background was measured for C=CCc1ccc(OCC(=O)Nc2cccc(C(F)(F)F)c2)c(OC)c1 ? 1.881

Input C=CCc1ccc(OCC(=O)Nc2ccccc2Cl)c(OC)c1 2.04
